Measured pIC50 of individual entries
System: human APOE RNA
Assay: Dose-dependent inhibition of human APOE RNA in HepG2 cells, electroporation, 50,000 cells per well, RT-PCR normalized to GAPDH (Example 4, Tables 8-10)
Assay type: cell-based
Settings: HepG2, electroporation, 16-hour treatment
Strand notation (5' to 3'): a small letter for the sugar, then the base; units joined by * are phosphorothioate-linked, units joined directly phosphodiester-linked; [ ] holds rarer units or linkages, { } end groups; capitals alone tell only the bases. [ms] = mesyl phosphoramidate linkage; e = 2'-O-(2-methoxyethyl) (MOE); k = constrained ethyl (cEt); [5mC] = 5-methylcytosine; d = 2'-deoxy (DNA)
Here pIC50 is given on a logarithmic scale as minus log10 of the concentration in mol/L.

1757572 (eA*e[5mC]eTeT*kG*kG*dT*dG[ms]dA[ms]dA[ms]dT*d[5mC]*dT*dT*dT*dA[ms]eT*eT*eA*eA; antisense) [Compound 1757572]: 5.63
1766559 (eT*eTeGeGeT*dG[ms]dA[ms]dA[ms]dT*d[5mC]*dT*dT*dT[ms]dA[ms]dT*kTkAeA*eA*e[5mC]; antisense) [Compound 1766559]: 6.47
1757564: mixed MOE/cEt gapmer TTGGTGAATCTTTATTAA, sugar eeeekddddddddkeeke, linkages soossssssssssooss (eT*eTeGeG*kT*dG*dA*dA*dT*d[5mC]*dT*dT*dT*kAeTeT*kA*eA) [compound 1757564]: 5.66
1757574 (eA*e[5mC]eTeT*eG*eG*dT*dG[ms]dA[ms]dA[ms]dT*d[5mC]*dT*dT*dT*dA[ms]kT*kT*eA*eA; antisense) [Compound 1757574]: 5.93
1757565 (eA*e[5mC]eTeTkG*dG*dT*dG*dA*dA*dT*d[5mC]*dT*dT*dT*eAeTeT*eA*eA; antisense) [Compound 1757565]: 5.67
1757551: mixed MOE/cEt gapmer TTGGTGAATCTTTATTAA, sugar eeekkddddddddeeeee, linkages soossssssssssooss (eT*eTeGkG*kT*dG*dA*dA*dT*d[5mC]*dT*dT*dT*eAeTeT*eA*eA) [compound 1757551]: 6.37

Summary: 1757561: mixed MOE/cEt gapmer TTGGTGAATCTTTATTAA, sugar eeekkddddddddkeeee, linkages soossssssssssooss (eT*eTeGkG*kT*dG*dA*dA*dT*d[5mC]*dT*dT*dT*kAeTeT*eA*eA) [compound 1757561] , human APOE RNA, pIC50 = 5.68

Summary: 1757554: mixed MOE/cEt gapmer TTGGTGAATCTTTATTAA, sugar kkeeeddddddddeeeee, linkages soossssssssssooss (kT*kTeGeG*eT*dG*dA*dA*dT*d[5mC]*dT*dT*dT*eAeTeT*eA*eA) [compound 1757554] , human APOE RNA, pIC50 = 5.80

Summary: 1757571 (eA*e[5mC]eTeT*eG*kG*dT*dG[ms]dA[ms]dA[ms]dT*d[5mC]*dT*dT*dT*dA[ms]eT*eT*eA*eA; antisense) [Compound 1757571] , human APOE RNA, pIC50 = 6.26

Summary: 1757585 (eT*eTeGkGkT*dG*dA*dA*dT*d[5mC]*dT*dT*dT*dA*dT*kTeAeA*eA*e[5mC]; antisense) [Compound 1757585] , human APOE RNA, pIC50 = 8.00

###

Tested on: human APOE RNA
Assay: Dose-dependent inhibition of human APOE RNA in HepG2 cells, electroporation, 50,000 cells per well, RT-PCR normalized to GAPDH (Example 4, Tables 8-10)
Assay type: cell-based
Settings: 8,000 nM; HepG2, electroporation, 24-hour treatment
Strand notation (5' to 3'): a small letter for the sugar, then the base; units joined by * are phosphorothioate-linked, units joined directly phosphodiester-linked; [ ] holds rarer units or linkages, { } end groups; capitals alone tell only the bases. [ms] = mesyl phosphoramidate linkage; k = constrained ethyl (cEt); [5mC] = 5-methylcytosine; d = 2'-deoxy (DNA)
Measured APOE RNA (% UTC) of individual entries
Numbers only; they are read as % UTC.

A selection of reference data follows.
1746787 (k[5mC]*kT*dT[ms]dG[ms]dG[ms]kT*dG[ms]dA[ms]dA[ms]dT*d[5mC]*dT*dT*dT*dA[ms]dT*kT*kA*dA[ms]kA; antisense) [Compound 1746787]: 11
1746791 (k[5mC]*dT[ms]dT[ms]kG*kG*dT[ms]dG[ms]dA[ms]dA[ms]dT*d[5mC]*dT*dT*dT*dA[ms]dT*kT*kA*dA[ms]kA; antisense) [Compound 1746791]: 16

Please look at the following substance next.
The value of APOE RNA (% UTC) measured for the substance 1746800 (k[5mC]*dT[ms]kT*dG[ms]dG[ms]kT*dG[ms]dA[ms]dA[ms]dT*d[5mC]*dT*dT*dT*dA[ms]dT*kT*dA[ms]kA*kA; antisense) [Compound 1746800] turned out to be 35

###

Tested on: human APOE RNA
Assay: Dose-dependent inhibition of human APOE RNA in HepG2 cells, electroporation, 50,000 cells per well, RT-PCR normalized to GAPDH (Example 4, Tables 8-10)
Assay type: cell-based
Details: HepG2 cells, electroporation, 24-hour treatment, 512 nM, Table 8
Procedure: Modified oligonucleotides selected from the examples above were tested at various doses in HepG2 cells. The modified oligonucleotides were tested in a series of experiments that had the same culture conditions. Each experiment is identified in separate tables below. HepG2 cells plated at a density of 50,000 cells per well were treated by electroporation with various concentrations of modified oligonucleotide as specified in the tables below. […]
Strand notation (5' to 3'): a small letter for the sugar, then the base; units joined by * are phosphorothioate-linked, units joined directly phosphodiester-linked; [ ] holds rarer units or linkages, { } end groups; capitals alone tell only the bases. [ms] = mesyl phosphoramidate linkage; e = 2'-O-(2-methoxyethyl) (MOE); k = constrained ethyl (cEt); [5mC] = 5-methylcytosine; d = 2'-deoxy (DNA)
Measured APOE RNA (% UTC) 512 nM of individual entries
Numbers only; they are read as % UTC.

A selection of reference data follows.
^mCksTksTksGdzGdzTdzGdzAdzAdzTds^mCdsTdsTdsTdsAdsTdsTksAksAdzAk (antisense k[5mC]*kT*kT*dG[ms]dG[ms]dT[ms]dG[ms]dA[ms]dA[ms]dT*d[5mC]*dT*dT*dT*dA*dT*kT*kA*dA[ms]kA) [Compound No. 1785602]: 27
1778125: modified oligonucleotide complementary to human APOE RNA (eA*e[5mC]eTeTeGeG*dT*dG[ms]dA[ms]dA*dT*d[5mC]*dT*dT*dT*dA[ms]kTkT*eA*eA; antisense) [compound 1778125]: 39
1778130: modified oligonucleotide complementary to human APOE RNA (eA*e[5mC]eTeTeG*kG*dT*dG[ms]dA[ms]dA*dT*d[5mC]*dT*dT*dT*dA[ms]kTkT*eA*eA; antisense) [compound 1778130]: 44

Please look at the following substance next.
The value of APOE RNA (% UTC) 512 nM measured for the substance 1778127: modified oligonucleotide complementary to human APOE RNA (eA*e[5mC]eTeTkGkG*dT*dG[ms]dA[ms]dA*dT*d[5mC]*dT*dT*dT*dA[ms]kTeT[ms]eA[ms]eA; antisense) [compound 1778127] turned out to be 31

###

Test system: human APOE RNA
Assay: Activity in APOE C57BL/6NTac-Apoeem7250 knock-in mice, single ICV bolus, 8 weeks (Example 11)
Assay type: in vivo
Conditions: spinal cord; single ICV bolus 300 μg; 8 weeks post treatment; normalized to mouse Ppia
Strand notation (5' to 3'): a small letter for the sugar, then the base; units joined by * are phosphorothioate-linked, units joined directly phosphodiester-linked; [ ] holds rarer units or linkages, { } end groups; capitals alone tell only the bases. [ms] = mesyl phosphoramidate linkage; e = 2'-O-(2-methoxyethyl) (MOE); k = constrained ethyl (cEt); [5mC] = 5-methylcytosine; d = 2'-deoxy (DNA)
Decide using APOE RNA (% control) Spinal Cord: a value greater than or equal to 50 % control is True, a smaller one is False.

1652905: 6-10-4 MOE gapmer GGTGAATCTTTATTAAACTA, linkages sooossssssssssssoss (antisense eG*eGeTeGeA*eA*dT*d[5mC]*dT*dT*dT*dA*dT*dT*dA*dA*eAe[5mC]*eT*eA) [compound 1652905]: False

Ask: Given Aks^mCeoTeoTesGesGksTdsGdzAdzAdzTds^mCdsTdsTdsTdsAdzTksTksAesAe (kA*e[5mC]eTeT*eG*kG*dT*dG[ms]dA[ms]dA[ms]dT*d[5mC]*dT*dT*dT*dA[ms]kT*kT*eA*eA) [Compound No. 1809635] , state whether its APOE RNA (% control) Spinal Cord is at least 50 % control.
Reply: False

Ask: Given 1652918: 6-10-4 MOE gapmer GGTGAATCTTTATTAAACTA, linkages sooooozzzsssssssoss (antisense eG*eGeTeGeAeAdT[ms]d[5mC][ms]dT[ms]dT*dT*dA*dT*dT*dA*dA*eAe[5mC]*eT*eA) [compound 1652918] , state whether its APOE RNA (% control) Spinal Cord is at least 50 % control.
Reply: False

Ask: Given 1693085: 6-10-4 MOE gapmer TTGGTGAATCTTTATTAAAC, linkages ssssszzzsssszzsssss (eT*eT*eG*eG*eT*eG[ms]dA[ms]dA[ms]dT*d[5mC]*dT*dT*dT[ms]dA[ms]dT*dT*eA*eA*eA*e[5mC]) [compound 1693085] , state whether its APOE RNA (% control) Spinal Cord is at least 50 % control.
Reply: True

Ask: Given 1785598: modified oligonucleotide complementary to human APOE RNA (k[5mC]*kT*kT*dG[ms]dG[ms]dT[ms]dG[ms]dA[ms]dA[ms]dT*d[5mC]*dT*dT*dT*dA*dT[ms]kT*kA*dA[ms]kA; antisense) [compound 1785598] , state whether its APOE RNA (% control) Spinal Cord is at least 50 % control.
Reply: False

Ask: Given 1785616 (k[5mC]*dT[ms]dT[ms]kG*dG[ms]kT*dG[ms]dA[ms]dA[ms]dT*d[5mC]*dT*dT*dT*dA*dT[ms]kT*kA*dA[ms]kA; antisense) [Compound 1785616] , state whether its APOE RNA (% control) Spinal Cord is at least 50 % control.
Reply: False

Ask: Given 1693047: 5-10-5 MOE gapmer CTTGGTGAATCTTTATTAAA, linkages sssoszzzzssssszosss (antisense e[5mC]*eT*eT*eGeG*dT[ms]dG[ms]dA[ms]dA[ms]dT*d[5mC]*dT*dT*dT*dA[ms]eTeT*eA*eA*eA) [compound 1693047] , state whether its APOE RNA (% control) Spinal Cord is at least 50 % control.
Reply: True

Ask: Given 1652917: 6-10-4 MOE gapmer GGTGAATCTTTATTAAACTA, linkages sooooossssszsszzoss (antisense eG*eGeTeGeAeAdT*d[5mC]*dT*dT*dT*dA[ms]dT*dT*dA[ms]dA[ms]eAe[5mC]*eT*eA) [compound 1652917] , state whether its APOE RNA (% control) Spinal Cord is at least 50 % control.
Reply: False
